# subject_of_test: HIV-1 PR (Human immunodeficiency virus type 1 group M subtype B, UniProt P04585)
# measurement_description: HIV-protease inhibitory activity assay (FRET peptide substrate)
# Format: biochemical
# assay_conditions: Test Example 1
pIC50: −log10 of the molar value.
Let's look at some molecules and their measured pIC50.
observation_type: pIC50

molecule	subject_of_test	quantitative_result
COc1ccc(S(=O)(=O)N(CC(C)C)C[C@@H](O)[C@H](Cc2ccc(COc3ccccc3-c3sc4c(c3C(=O)O)CC(C)(C)CC4)cc2)NC(=O)O[C@H]2CO[C@@]3(C)OCC[C@@H]23)cc1	HIV-1 PR (Human immunodeficiency virus type 1 group M subtype B, UniProt P04585)	8.77
COc1ccc(S(=O)(=O)N(CC(C)C)CC(O)C(Cc2ccc(OCc3ccccc3-c3oc4c(c3C(=O)O)CCCC4)cc2)NC(=O)OC2COC3OCCC23)cc1 (stereo not drawn)	HIV-1 PR (Human immunodeficiency virus type 1 group M subtype B, UniProt P04585)	8.94
COc1ccc(S(=O)(=O)N(CC(C)C)CC(O)C(Cc2ccc(N3CCC(Oc4ccccc4-c4sc5c(c4C(=O)O)CC(C)(C)CC5)CC3)cc2)NC(=O)OC2COC3(C)OCCC23)cc1 (stereo not drawn)	HIV-1 PR (Human immunodeficiency virus type 1 group M subtype B, UniProt P04585)	8.62
